The measurements presented in this section are drawn from patent US20240228535A1.

- Target: SARS2 coronavirus 3CL protease (Severe acute respiratory syndrome coronavirus 2)
- Assay: biochemical
- Experimental conditions: 5 nM enzyme, 30 min pre-incubation with compound, 15 μM peptide substrate, 4 h at room temperature; read-out: FRET Potency (nM); IC50 values in the SARS2 3CLPro FRET assay
Strictly below 10 nM in IC50: TRUE. Otherwise: FALSE.

Please state whether IC50 is below 10 nM for C[C@@H]1C[C@@H](C[C@H](NC(=O)c2cc(Cl)ccc2NC(=O)C2CC2C(F)(F)F)C(=O)C(=O)NC2CC2)C(=O)N1 (stereo partly drawn) [Example 84]
FALSE

A record lists CNC(=O)C(=O)[C@H](C[C@@H]1C[C@@H](C)NC1=O)NC(=O)c1cc(Cl)ccc1NC(=O)c1ccnc(C(F)(F)F)c1 . Is its IC50 below 10 nM?
TRUE

Please state whether IC50 is below 10 nM for CNC(=O)C(=O)[C@H](C[C@@H]1C[C@@H](C)NC1=O)NC(=O)c1cc(C(F)F)ccc1NC(=O)OC
FALSE

I'd appreciate it if you could check whether CNC(=O)C(=O)[C@H](C[C@@H]1C[C@@H](C)NC1=O)NC(=O)c1cc(Cl)ccc1NC(=O)c1cccc(C(F)(F)F)c1 has IC50 smaller than 10 nM.
TRUE

Does this compound meet the criterion IC50 < 10 nM? CNC(=O)C(=O)[C@H](C[C@@H]1C[C@@H](C)NC1=O)NC(=O)c1cc(Cl)ccc1NC(=O)OC(C)(C)C
FALSE

----------
- Target: SARS2 coronavirus 3CL protease (Severe acute respiratory syndrome coronavirus 2)
- Assay: biochemical
- Experimental conditions: 5 nM enzyme, 30 min pre-incubation with compound, 15 μM peptide substrate, 4 h at room temperature; read-out: FRET Potency (nM); IC50 values in the SARS2 3CLPro FRET assay
Experimental endpoint: log10 of IC50 (log10 of the value in nM)
Hey, these are logged values: log10 of IC50, nM being the unit before logging.

Past entries and their recorded results:
> print(dat)
                                   compound  experimental.endpoint  measured.value
1  CNC(=O)C(=O)[C@H](C[C@@H]1C[C@@H](C)NC1=O)NC(=O)c1cc(Cl)ccc1NC(=O)c1cc(C(F)(F)F)ccn1          log10 of IC50            0.80
2  CNC(=O)C(=O)C(CC1C[C@@H](C(F)(F)F)NC1=O)NC(=O)c1cc(C#N)ccc1NC(=O)CCC(F)(F)F (stereo partly drawn)          log10 of IC50            2.06
3  CNC(=O)C(=O)[C@H](C[C@@H]1CCNC1=O)NC(=O)c1cc(Cl)ccc1NC(=O)OC1CC1(F)F (stereo partly drawn) [Example 156]          log10 of IC50            1.16
4  CNC(=O)C(=O)[C@H](C[C@@H]1C[C@@H](C(F)(F)F)NC1=O)NC(=O)c1cc(Cl)cnc1NC(=O)c1cccc(C(F)(F)F)c1          log10 of IC50            0.98

Provide log10 of IC50 for all items below, preserving their order.
1. C[C@@H]1C[C@@H](C[C@H](NC(=O)c2cc(Cl)ccc2NC(=O)C23CC(F)(C2)C3)C(=O)C(=O)NC2CC2)C(=O)N1
2. CNC(=O)C(=O)[C@H](C[C@@H]1CCNC1=O)NC(=O)c1cc(Cl)ccc1NC(=O)C(C)c1cscn1 (stereo partly drawn)

1: 0.91; 2: 0.40

----------
- Target: SARS2 coronavirus 3CL protease (Severe acute respiratory syndrome coronavirus 2, UniProt P0DTD1)
- Assay: biochemical
- Experimental conditions: 5 nM enzyme, 30 min pre-incubation with compound, 15 μM peptide substrate, 4 h at room temperature; read-out: FRET Potency (nM); IC50 values in the SARS2 3CLPro FRET assay
Experimental endpoint: IC50 (nM)
One number for each entry, in nM.

Solved cases below.
> print(dat)
                                   compound  output.unit  measured.value
1  CNC(=O)C(=O)[C@H](C[C@@H]1C[C@@H](C)NC1=O)NC(=O)c1cc(Cl)ccc1NC(=O)c1ccc(C(F)(F)F)nc1           nM             5.3
2  C[C@@H]1C[C@@H](C[C@H](NC(=O)c2cc(Cl)ccc2NC(=O)CCC(F)(F)F)C(=O)C(=O)NCc2ccncc2)C(=O)N1           nM            18.9
3  CC(OC(=O)Nc1ccc(Cl)cc1C(=O)N[C@@H](C[C@@H]1C[C@@H](C)NC1=O)C(=O)C(=O)NC1CC1)C(F)(F)F (stereo partly drawn) [Example 210]           nM             7.8
4  C[C@@H]1C[C@@H](C[C@H](NC(=O)c2cc(Cl)c(F)cc2NC(=O)C2(C(F)(F)F)CC2)C(=O)C(=O)NC2CC2)C(=O)N1           nM            12.2

// batch mode: one IC50 value per listed entry
1. CNC(=O)C(=O)[C@H](C[C@@H]1CCNC1=O)NC(=O)c1cc(Cl)ccc1NC(=O)OCC(F)(F)F
2. CNC(=O)C(=O)[C@H](C[C@@H]1CCNC1=O)NC(=O)c1cc(Cl)ccc1NC(=O)OC1CC(F)(F)C1

[8.6, 6.7]

----------
- Target: SARS2 coronavirus 3CL protease (Severe acute respiratory syndrome coronavirus 2)
- Assay: biochemical
- Experimental conditions: 5 nM enzyme, 30 min pre-incubation with compound, 15 μM peptide substrate, 4 h at room temperature; read-out: FRET Potency (nM); IC50 values in the SARS2 3CLPro FRET assay
Experimental endpoint: IC50 (nM)
Give bare numbers, in nM.

Compound	IC50 (nM)
CNC(=O)C(=O)[C@H](C[C@@H]1C[C@@H](C)NC1=O)NC(=O)c1cc(OC(F)F)cnc1NC(=O)c1cccc(C(F)(F)F)c1 [Example 18]	31.1
O=C(CC(F)(F)F)Nc1ccc(Cl)cc1C(=O)N[C@@H](C[C@@H]1CCNC1=O)C(=O)C(=O)NC1CC1 [Example 38]	10.5
CNC(=O)C(=O)[C@H](C[C@@H]1CCNC1=O)NC(=O)c1cc(F)c(F)cc1NC(=O)OC1CC1 [Example 127]	7.9
CNC(=O)C(=O)[C@H](C[C@@H]1C[C@@H](C)NC1=O)NC(=O)c1cc(Cl)ccc1NC(=O)C1CCC(F)(F)C1 (single isomer, unassigned) [Example 16]	31.6
C[C@@H]1C[C@@H](C[C@H](NC(=O)c2cc(Cl)ccc2NC(=O)c2cc(C(F)(F)F)ccn2)C(=O)C(=O)NC2CC2)C(=O)N1 [Example 86]	6.8
O=C(NC1CC1)C(=O)[C@H](C[C@@H]1CCNC1=O)NC(=O)c1cc(Cl)ccc1NC(=O)C12CC(F)(C1)C2 [Example 30]	12.9
CCOC(=O)Nc1ccc(Cl)cc1C(=O)N[C@@H](C[C@@H]1C[C@@H](C)NC1=O)C(=O)C(=O)NC [Example 129]	5.9
O=C(Nc1ccc(Cl)cc1C(=O)N[C@@H](C[C@@H]1CCNC1=O)C(=O)C(=O)NC1CC1)OCC1CC1 [Example 162]	7.5
C[C@@H]1C[C@@H](C[C@H](NC(=O)c2cc(Cl)ccc2NC(=O)c2ccn(CC(F)(F)F)n2)C(=O)C(=O)NC2CC2)C(=O)N1 [Example 100]	5.9
CCOC(=O)Nc1ccc(Cl)cc1C(=O)N[C@@H](C[C@@H]1CCNC1=O)C(=O)C(=O)NC1CC1 [Example 139]	6.3

Answer for every listed entry: what is its IC50? The entries follow.
1. CNC(=O)C(=O)[C@H](C[C@@H]1C[C@@H](C)NC1=O)NC(=O)c1cc(Cl)ccc1NC(=O)C1CCCC(F)(F)C1 (single isomer, unassigned) [Example 198]
2. CCOC(=O)Nc1ccc(Cl)cc1C(=O)N[C@@H](C[C@@H]1CCNC1=O)C(=O)C(=O)NC [Example 111]
3. CNC(=O)C(=O)[C@H](C[C@@H]1C[C@@H](C)NC1=O)NC(=O)c1cc(Cl)ccc1NC(=O)c1cncc(C(F)(F)F)c1 [Example 91]

5.5
5.8
6.1

----------
I'd appreciate it if you could supply IC50 values for the items below.
- Target: SARS2 coronavirus 3CL protease (Severe acute respiratory syndrome coronavirus 2, UniProt P0DTD1)
- Assay: biochemical
- Experimental conditions: 5 nM enzyme, 30 min pre-incubation with compound, 15 μM peptide substrate, 4 h at room temperature; read-out: FRET Potency (nM); IC50 values in the SARS2 3CLPro FRET assay
Answers are plain numbers, in nM.

Field: example entries. Status: answers known.
> print(dat)
                                   molecule  measured.value
1  C[C@@H]1C[C@@H](C[C@H](NC(=O)c2cc(Cl)cnc2NC(=O)C2CCC(F)(F)CC2)C(=O)C(=O)NC2CC2)C(=O)N1 [Example 39]            10.3
2  C[C@@H]1C[C@@H](C[C@H](NC(=O)c2cc(C(F)(F)F)ccc2NC(=O)c2cccc(C(F)(F)F)c2)C(=O)C(=O)NC2CC2)C(=O)N1 [Example 64]             7.3
3  CNC(=O)C(=O)[C@H](C[C@@H]1C[C@@H](C)NC1=O)NC(=O)c1cc(Cl)ccc1NC(=O)[C@@H]1CN(C)C(=O)O1 [Example 182]             6.7
4  O=C(NC1CC1)C(=O)[C@H](C[C@@H]1CCNC1=O)NC(=O)c1cc(Cl)ccc1NC(=O)C1(CC(F)(F)F)CC1 [Example 36]            10.7
5  CNC(=O)C(=O)[C@H](C[C@@H]1CCNC1=O)NC(=O)c1cc(Cl)ccc1NC(=O)OC(C)C(F)(F)F (stereo partly drawn) [Example 180]             4.5

# evaluate next
Could you share which IC50 value was measured for C[C@@H]1C[C@@H](C[C@H](NC(=O)c2cc(F)ccc2NC(=O)c2cccc(C(F)(F)F)c2)C(=O)C(=O)NC2CC2)C(=O)N1 [Example 78] ?
4.6
